Tested on: M. tuberculosis
measurement protocol: microbe, parasite or virus in culture
Type: cell-based, Mycobacterium tuberculosis
experimental setup: 7H12 BACTEC broth, pH 6.8
endpoint: MIC, PZA-resistant strain, pH 6.8 (g./ml)
Write the number in g./ml without appending the unit.

Guide cases for MIC, PZA-resistant strain, pH 6.8, answers given:
| molecule | system tested | MIC, PZA-resistant strain, pH 6.8 / g./ml |
| --- | --- | --- |
| CCN(CC)CNC(=O)c1cnccn1 [Compound 2] | M. tuberculosis | 100 |
| O=C(NCN1CCCC1)c1cnccn1 [Compound 1] | M. tuberculosis | 100 |

# context switch: different molecule, same MIC, PZA-resistant strain, pH 6.8
Data request: // returns reported MIC, PZA-resistant strain, pH 6.8 for input O=C(NCN1CCOCC1)c1cnccn1 [MZA, morphazinamide]
Data returned: 100
